Data origin: patent US20250312352A1

target: GLP-1R (Homo sapiens, UniProt P43220)
Sequence (P43220 24-463): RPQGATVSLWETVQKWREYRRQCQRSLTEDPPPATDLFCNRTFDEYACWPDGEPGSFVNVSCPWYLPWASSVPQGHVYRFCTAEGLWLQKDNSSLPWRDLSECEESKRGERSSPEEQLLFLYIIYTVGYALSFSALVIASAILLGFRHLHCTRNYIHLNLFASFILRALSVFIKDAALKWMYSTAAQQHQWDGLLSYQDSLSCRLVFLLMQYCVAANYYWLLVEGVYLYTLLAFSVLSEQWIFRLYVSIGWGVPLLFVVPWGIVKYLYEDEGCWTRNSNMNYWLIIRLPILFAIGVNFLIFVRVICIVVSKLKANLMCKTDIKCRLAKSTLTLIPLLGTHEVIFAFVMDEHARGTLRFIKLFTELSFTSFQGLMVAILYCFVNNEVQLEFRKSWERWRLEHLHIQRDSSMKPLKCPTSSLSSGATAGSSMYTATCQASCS
runDescription: GLP-1R activation cAMP assay (Assay 1 or Assay 2)
details: cAMP increase in CHO cells stably expressing GLP-1R; compounds run on one of the two cAMP assays
Grouping key: EC50. Bins: b0 = under 0.2 nM, b1 = from 0.2 nM up to 0.4 nM, b2 = 0.4 nM and over

Solved cases (5 shown):
Q. Which bin should I file O=C(O)c1cc(F)c2nc(Cc3cc(F)c(-c4cccc(OCc5ccc(Cl)s5)n4)cc3F)n(C[C@@H]3CCO3)c2c1 under?
A. b0

Q. Which bin should I file O=C(O)c1ccc2nc(Cc3cc(F)c(-c4cccc(OCc5nc(C(F)(F)F)cs5)n4)cc3F)n(C[C@@H]3CCO3)c2c1 under?
A. b1

Q. Which bin should I file Cc1cc(Cc2nc3ccc(C(=O)O)cc3n2C[C@@H]2CCO2)c(F)cc1-c1cccc(OCc2ncc(-c3cnn(C(F)F)c3)s2)n1 under?
A. b2

Q. Which bin should I file CC1(C)COC[C@H]1n1c(Cc2cc(F)c(-c3cccc(OCc4nnc(C(F)(F)F)s4)n3)cc2F)nc2ccc(C(=O)O)cc21 under?
A. b2

Q. Which bin should I file COc1nnc(COc2nc(-c3cc(F)c(Cc4nc5c(Cl)cc(C(=O)O)cc5n4[C@@H]4COCC4(C)C)cc3F)ccc2F)s1 under?
A. b1

Others:
Q. Which bin should I file COc1ncc(C#Cc2cnc(COc3cccc(-c4cc(F)c(Cc5nc6ccc(C(=O)O)cc6n5C[C@@H]5CCO5)cc4F)n3)c(F)c2)s1 under?
A. b0

Q. Which bin should I file NC(=O)c1csc(COc2cccc(-c3cc(F)c(Cc4nc5ccc(C(=O)O)cc5n4C[C@@H]4CCO4)cc3F)n2)n1 under?
A. b2

Q. Which bin should I file NC(=O)c1ccc(COc2cccc(-c3cc(F)c(Cc4nc5ccc(C(=O)O)cc5n4C[C@@H]4CCO4)cc3F)n2)s1 under?
A. b2

Q. Which bin should I file CC1(C)COC[C@H]1n1c(Cc2cc(F)c(-c3cccc(OCc4sc(C#N)cc4F)n3)cc2F)nc2ccc(C(=O)O)cc21 under?
A. b0

###

runDescription: Pharmacokinetic (PK) studies, monkey oral PK
Format: in vivo, Cynomolgus monkeys
details: plasma; Cynomolgus monkey, oral dose 2 mg/kg (CE-1: 1 mg/kg)
Protocol: Examples 54 and 253 were tested along with comparative examples CE-1 and CE-2. […] LC-MS/MS assays were utilized to quantify the concentration of the test articles in plasma as follows. […] Pharmacokinetics parameters, including area under the curve (AUC0-24), maximum plasma concentration (Cmax), time to reach maximum plasma concentration (Tma), oral bioavailability (F %), etc., were calculated using Dotmatics software in non-compartmental model.
Catalogue of bioavailability readings, one per entry.
Respond with the bare value in %.

Q. Would you mind telling me what bioavailability value was observed for O=C(O)c1cc(F)c2nc(Cc3cc(F)c(-c4cccc(OCc5ncc(C(F)(F)F)s5)n4)cc3F)n(C[C@@H]3CCO3)c2c1 ?
A. 55.7

Q. Would you mind telling me what bioavailability value was observed for N#Cc1ccc(COc2cccc(-c3cc(F)c(Cc4nc5ccc(C(=O)O)cc5n4C[C@@H]4CCO4)cc3F)n2)c(F)c1 ?
A. 27.4

Q. Would you mind telling me what bioavailability value was observed for O=C(O)c1ccc2nc(Cc3cc(F)c(-c4cccc(OCc5ncc(C(F)(F)F)s5)n4)cc3F)n(C[C@@H]3CCO3)c2c1 ?
A. 89

Others:
Q. Would you mind telling me what bioavailability value was observed for N#Cc1ccc(COc2cccc(C3CCN(Cc4nc5ccc(C(=O)O)cc5n4C[C@@H]4CCO4)CC3)n2)c(F)c1 ?
A. 2.5

###

target: GLP-1R (Homo sapiens, UniProt P43220)
runDescription: GLP-1R activation cAMP assay (Assay 1 or Assay 2)
details: cAMP increase in CHO cells stably expressing GLP-1R; compounds run on one of the two cAMP assays
Catalogue of pEC50 readings, one per entry.
Bear in mind: pEC50 is minus log10 of a mol/L concentration; give just that figure.

Here is how some compounds turned out for pEC50.
Q. Would you mind telling me what pEC50 value was observed for CC1(C)COC[C@H]1n1c(Cc2cc(F)c(-c3ccnc(OCc4sc(C#N)cc4F)n3)cc2F)nc2ccc(C(=O)O)cc21 ?
A. 9.40

Q. Would you mind telling me what pEC50 value was observed for COc1nnc(COc2nc(-c3cc(F)c(Cc4nc5c(F)cc(C(=O)O)cc5n4CC4(CF)CC4)cc3F)ccc2F)s1 ?
A. 9.26

Q. Would you mind telling me what pEC50 value was observed for O=C(O)c1cc(F)c2nc(Cc3cc(F)c(-c4ccc(F)c(OCc5ncc(Cl)s5)n4)cc3F)n(C[C@@H]3CCO3)c2c1 ?
A. 10.52

Q. Would you mind telling me what pEC50 value was observed for O=C(O)c1ccc2nc(Cc3cc(F)c(-c4cccc(OCc5ccc(C(F)(F)F)s5)n4)cc3F)n(C[C@@H]3CCO3)c2c1 ?
A. 8.58

Q. Would you mind telling me what pEC50 value was observed for N#CC1(NC(=O)c2ccc(COc3cccc(-c4cc(F)c(Cc5nc6ccc(C(=O)O)cc6n5C[C@@H]5CCO5)cc4F)n3)cn2)CC1 ?
A. 9.59

Q. Would you mind telling me what pEC50 value was observed for CCOc1nnc(COc2nc(-c3cc(F)c(Cc4nc5c(F)cc(C(=O)O)cc5n4[C@@H]4COCC4(C)C)cc3C)ccc2F)s1 ?
A. 10.18

Others:
Q. Would you mind telling me what pEC50 value was observed for COc1nnc(COc2nc(-c3cc(Cl)c(Cc4nc5ccc(C(=O)O)cc5n4[C@@H]4COCC4(C)C)cc3C)ccc2F)s1 ?
A. 9.32

Q. Would you mind telling me what pEC50 value was observed for Cn1cc(C#Cc2cnc(COc3nc(-c4cc(F)c(Cc5nc6c(F)cc(C(=O)O)cc6n5C[C@@H]5CCO5)cc4F)ccc3F)c(F)c2)cn1 ?
A. 10.44

Q. Would you mind telling me what pEC50 value was observed for O=C(O)c1cc(F)c2nc(Cc3cc(F)c(-c4cccc(OCc5ncc(C(F)F)s5)n4)cc3F)n(C[C@@H]3CCO3)c2c1 ?
A. 9.91

Q. Would you mind telling me what pEC50 value was observed for O=C(O)c1ccc2nc(Cc3cc(F)c(-c4cccc(OCc5cnc(-c6cn(C7COC7)nn6)cc5F)n4)cc3F)n(C[C@@H]3CCO3)c2c1 ?
A. 9.66

Q. Would you mind telling me what pEC50 value was observed for CNC(=O)c1cc(Cl)c(COc2cccc(-c3cc(F)c(Cc4nc5c(F)cc(C(=O)O)cc5n4C[C@@H]4CCO4)cc3F)n2)cn1 ?
A. 10.40

Q. Would you mind telling me what pEC50 value was observed for COc1nnc(COc2nc(-c3ccc(Cc4nc5c(F)cc(C(=O)O)cc5n4[C@@H]4COCC4(C)C)c(F)c3)ccc2F)s1 ?
A. 10.62

Q. Would you mind telling me what pEC50 value was observed for C[C@H]1COC[C@H]1n1c(Cc2cc(F)c(-c3ccc(F)c(OCc4ncc(C(F)(F)F)s4)n3)cc2F)nc2ccc(C(=O)O)cc21 ?
A. 9.16

###

target: GLP-1R (Homo sapiens)
Construct: host or cells: CHO cells
runDescription: GLP-1R activation cAMP assay (Assay 1 or Assay 2)
Assay type: cell-based
details: cAMP increase in CHO cells stably expressing GLP-1R; compounds run on one of the two cAMP assays
metric: log10(EC50) (log10 of the value in nM)
For clarity, the numbers are log10 values of EC50 expressed in nM.

Here is how some molecules turned out for log10(EC50).
Q. Would you mind telling me what log10(EC50) value was observed for O=C(O)c1ccc2nc(Cc3cc(F)c(-c4cccc(OCc5ncc(-c6ccns6)s5)n4)cc3F)n(C[C@@H]3CCO3)c2c1 ?
A. -1.05

Q. Would you mind telling me what log10(EC50) value was observed for CC(F)(F)c1cnc(COc2cccc(-c3cc(F)c(Cc4nc5ccc(C(=O)O)cc5n4[C@@H]4COCC4(C)C)cc3F)n2)s1 ?
A. -0.27

Q. Would you mind telling me what log10(EC50) value was observed for Cn1nccc1C#Cc1ccc(COc2cccc(-c3cc(F)c(Cc4nc5ccc(C(=O)O)cc5n4C[C@@H]4CCO4)cc3F)n2)c(F)c1 ?
A. -0.47

Q. Would you mind telling me what log10(EC50) value was observed for CC(C)(O)C#Cc1cnc(COc2cccc(-c3cc(F)c(Cc4nc5ccc(C(=O)O)cc5n4C[C@@H]4CCO4)cc3F)n2)s1 ?
A. -0.45

Q. Would you mind telling me what log10(EC50) value was observed for NC(=O)c1ccc(COc2nccc(-c3cc(F)c(Cc4nc5ccc(C(=O)O)cc5n4C[C@@H]4CCO4)cc3F)n2)c(F)c1 ?
A. 0.04

Could you now consider this next molecule?
Q. Would you mind telling me what log10(EC50) value was observed for CC(C)(C#N)NC(=O)c1cc(Cl)c(COc2cccc(-c3cc(F)c(Cc4nc5ccc(C(=O)O)cc5n4C[C@@H]4CCO4)cc3F)n2)cn1 ?
A. -0.28
